Test system: MCF-7 (breast adenocarcinoma)
assay-protocol: Cell proliferation assay (MTT)
Type: cell-based
experimental-context: Homo sapiens, MCF7, 48 h, 2 days incubation, average ± SD of three experiments
experimental-endpoint: IC50 (µM)
Kindly answer with a numeric value in µM, unit omitted.

Some compounds with known IC50 results, for comparison:
compound=COc1ccc(CCc2cccc(NC(=O)Nc3cccc(OC)c3)c2)cc1 readout_number=25
compound=COc1ccc(CCc2cccc(NC(=O)Nc3cccc(Br)c3)c2)cc1 readout_number=10
compound=COc1ccc(/C=C\c2cccc(NC(=O)Nc3ccc(Br)cc3)c2)cc1 readout_number=24
compound=COc1ccc(/C=C/c2cccc(NC(=O)Nc3ccc(Br)cc3)c2)cc1 readout_number=0.3
compound=COc1ccc(/C=C/c2cccc(NC(=O)Nc3ccc(OC)cc3)c2)cc1 readout_number=0.7

Now consider the entry below.
Prompt: Fill blank: measured IC50 of the compound COc1ccc(/C=C\c2cccc(NC(=O)Nc3ccc(OC)cc3)c2)cc1 is ____.
Response: 8

* * *

System: HeLa (epithelioid cervix carcinoma)
assay-protocol: Cell proliferation assay (MTT)
Type: cell-based
experimental-context: Homo sapiens, 48 h, 2 days incubation, average ± SD of three experiments
Source text: The ability of Ureas 13–33 to inhibit cell proliferation was established by means of their IC50 values towards the human tumor cell lines HT-29 (colon adenocarcinoma), MCF-7 (breast adenocarcinoma), HeLa (epithelioid cervix carcinoma) and A549 (pulmonary adenocarcinoma), as well as towards the endothelial cell line HMEC-1 (human microvascular endothelial cells) and the non-tumor cell line HEK-293 (human embryonic kidney cells). […]
Catalogue of pIC50 readings, one per entry.
# reply with the number alone; pIC50 is -log10 of concentration in mol/L

Examples from the recorded data:
line_notation=COc1ccc(/C=C/c2cccc(NC(=O)Nc3cccc(OC)c3)c2)cc1 experimental_endpoint=pIC50 readout_number=5.15
line_notation=COc1ccc(CCc2cccc(NC(=O)Nc3ccccc3)c2)cc1 experimental_endpoint=pIC50 readout_number=5.00
line_notation=COc1ccc(CCc2cccc(NC(=O)Nc3ccc(OC)cc3)c2)cc1 experimental_endpoint=pIC50 readout_number=5.85
line_notation=COc1ccc(/C=C\c2cccc(NC(=O)Nc3cccc(Br)c3)c2)cc1 experimental_endpoint=pIC50 readout_number=4.52
line_notation=COc1ccc(CCc2cccc(NC(=O)Nc3cccc(Br)c3)c2)cc1 experimental_endpoint=pIC50 readout_number=4.97

Prompt: What pIC50 value was documented for this compound, COc1ccc(/C=C/c2cccc(NC(=O)Nc3cccc(Br)c3)c2)cc1 ?
Response: 5.82

Prompt: Query (compound): COc1ccc(/C=C\c2cccc(NC(=O)Nc3ccccc3Br)c2)cc1 ; field requested: pIC50
Response: 4.59

Prompt: Suppose we examine the compound COc1ccc(/C=C\c2cccc(NC(=O)Nc3cccc(OC)c3)c2)cc1 ; what pIC50 value has been reported?
Response: 4.62

Prompt: Consider the compound COc1ccc(CCc2cccc(NC(=O)Nc3ccc(Br)cc3)c2)cc1 and give its measured pIC50.
Response: 5.43

* * *

The entries below come with measured pIC50 values attached.
Test system: HMEC-1 (human microvascular endothelial cells)
assay-protocol: Cell proliferation assay (MTT)
Format: cell-based
experimental-context: HMEC-1, 48 h, 2 days incubation, average ± SD of three experiments
Please note pIC50 is a logarithmic value: minus log10 of concentration in mol/L. Answer with that number alone.

The examples below pair each entry with its known result.
compound=COc1ccc(/C=C/c2cccc(NC(=O)Nc3ccc(OC)cc3)c2)cc1 experimental_endpoint=pIC50 readout_number=5.72
compound=COc1ccc(/C=C/c2cccc(NC(=O)Nc3ccccc3)c2)cc1 experimental_endpoint=pIC50 readout_number=5.40
compound=COc1ccc(/C=C\c2cccc(NC(=O)Nc3ccccc3)c2)cc1 experimental_endpoint=pIC50 readout_number=4.40
compound=COc1ccc(/C=C/c2cccc(NC(=O)Nc3ccc(Br)cc3)c2)cc1 experimental_endpoint=pIC50 readout_number=5.74
compound=COc1ccc(/C=C\c2cccc(NC(=O)Nc3ccc(OC)cc3)c2)cc1 experimental_endpoint=pIC50 readout_number=4.96

Moving on to another compound below.
Prompt: Which pIC50 value belongs to COc1ccc(/C=C/c2cccc(NC(=O)Nc3ccccc3OC)c2)cc1 ?
Response: 5.14

Data provenance: paper PMC8067507
